Test system: PXR homodimer (NR concentration 270 nM)
test_description: PBM binding z-score (relative to random genomic background probes); higher = stronger binding; sequences stand for … in GC…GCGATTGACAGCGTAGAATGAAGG
Provide the recorded PBM binding z-score for the entries that follow.

Req: Need PBM binding z-score of `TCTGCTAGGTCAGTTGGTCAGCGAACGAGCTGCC` , thanks.
Resp: -0.82

Req: What would you report for `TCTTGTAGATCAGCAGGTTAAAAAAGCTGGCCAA` ?
Resp: -0.197

Req: What would you report for `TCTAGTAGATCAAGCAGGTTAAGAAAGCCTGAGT` ?
Resp: -0.142

Req: What would you report for `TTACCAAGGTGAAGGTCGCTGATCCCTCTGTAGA` ?
Resp: -0.523

Could you tell me PBM binding z-score for each of these sequences? They are listed below.
1. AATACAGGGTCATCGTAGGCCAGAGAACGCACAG
2. AGTCAAAGTTCATCTCGGTAACGTAAGATATGCT
3. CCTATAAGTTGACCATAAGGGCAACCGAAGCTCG
4. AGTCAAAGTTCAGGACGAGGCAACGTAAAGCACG
5. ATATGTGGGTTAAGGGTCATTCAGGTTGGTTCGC
6. TGGATGAGGTTATAAGATCAGGGAACGTTGCAAA

Resp:
0.451
4.44
0.7
0.989
3.93
0.518

Could you tell me PBM binding z-score for each of these sequences? They are listed below.
1. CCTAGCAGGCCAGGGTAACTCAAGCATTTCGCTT
2. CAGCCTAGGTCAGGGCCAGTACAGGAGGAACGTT

Resp:
1: -0.762; 2: -0.209
